Cited source for all entries: paper PMC10460844

tested on: rat erythrocytes; assay: Hemolysis assay; type: cell-based; settings: red cells of rat
Counter-ions that a name gives are not always drawn. Square brackets hold non-standard residues; d marks the D form. Peptide text beside a SMILES is read from it. Gly(N(CH2)2(3-indolyl)) = O=C(O)CNCCc1c[nH]c2ccccc12; Nspe = C[C@H](NCC(=O)O)c1ccccc1; Nlys = NCCCCNCC(=O)O
Reported HC50 values for the following molecules.
Give just the numeric value; µM need not be written.

| molecule | HC50, µM |
| --- | --- |
| C[C@@H](c1ccccc1)N(CC(N)=O)C(=O)CN(C(=O)CN(CCCCN)C(=O)CN(C(=O)CN(C(=O)CN(CCCCN)C(=O)CN(C(=O)CN(C(=O)CN(CCCCN)C(=O)CN(CCc1c[nH]c2ccccc12)C(=O)CN(C(=O)CNCCCCN)[C@@H](C)c1ccccc1)[C@@H](C)c1ccccc1)[C@@H](C)c1ccccc1)[C@@H](C)c1ccccc1)[C@@H](C)c1ccccc1)[C@@H](C)c1ccccc1 [peptoid 10] | 25.8 |

// next entry
Q: Item C[C@@H](c1ccccc1)N(CC(=O)N(CCCCN)CC(=O)N(CC(=O)N(CC(=O)N(CCCCN)CC(=O)N(CC(=O)N(CC(=O)N(CCCCN)CC(=O)N(CCc1c[nH]c2ccccc12)CC(=O)N(CCc1c[nH]c2ccccc12)CC(N)=O)[C@@H](C)c1ccccc1)[C@@H](C)c1ccccc1)[C@@H](C)c1ccccc1)[C@@H](C)c1ccccc1)C(=O)CN(C(=O)CNCCCCN)[C@@H](C)c1ccccc1 [11-HCl] (H-[Nlys][Nspe][Nspe][Nlys][Nspe][Nspe][Nlys][Nspe][Nspe][Nlys][Gly(N(CH2)2(3-indolyl))][Gly(N(CH2)2(3-indolyl))]-NH2) has what recorded HC50?
A: 21.5

====

# key: entry, value: HC50
system: rat erythrocytes; experiment: Hemolysis assay; format: cell-based; details: pH 7.4

| structureNotation | propertyName | reported |
| --- | --- | --- |
| C[C@@H](c1ccccc1)N(CC(N)=O)C(=O)CN(CCCCN)C(=O)CN(C(=O)CN(C(=O)CN(CCCCN)C(=O)CN(C(=O)CN(C(=O)CN(CCCCN)C(=O)CN(C(=O)CN(CCCCN)C(=O)CN(CCCCN)C(=O)CN(C(=O)CNCCc1c[nH]c2ccccc12)[C@@H](C)c1ccccc1)[C@@H](C)c1ccccc1)[C@@H](C)c1ccccc1)[C@@H](C)c1ccccc1)[C@@H](C)c1ccccc1)[C@@H](C)c1ccccc1 | HC50 | > 100 µM |

Turning now to a further record.
Q: Requested field: HC50. Item: C[C@@H](c1ccccc1)N(CC(N)=O)C(=O)CN(C(=O)CN(CCCCN)C(=O)CN(C(=O)CN(C(=O)CN(CCCCN)C(=O)CN(CCc1c[nH]c2ccccc12)C(=O)CN(CCCCN)C(=O)CN(CCCCN)C(=O)CN(C(=O)CN(C(=O)CNCCCCN)[C@@H](C)c1ccccc1)[C@@H](C)c1ccccc1)[C@@H](C)c1ccccc1)[C@@H](C)c1ccccc1)[C@@H](C)c1ccccc1
A: > 100 µM

====

assay: Analytical reversed-phase HPLC elution (hydrophobicity); assay type: physicochemical; conditions: Table S1; analytical RP-HPLC, SunFire C18, water/ACN + 0.1% TFA, 5 to 100% B linear over 30 min, 1 mL/min, UV 220 nm; approximate comparison of hydrophobicity
Square brackets hold non-standard residues; d marks the D form. Peptide text beside a SMILES is read from it. Gly(N(CH2)2(3-indolyl)) = O=C(O)CNCCc1c[nH]c2ccccc12; Nspe = C[C@H](NCC(=O)O)c1ccccc1; Nphe = O=C(O)CNCc1ccccc1; Nlys = NCCCCNCC(=O)O
Documented HPLC elution across a set of compounds
The response must be a number in % MeCN with no trailing unit.

| compound | propertyName | reported |
| --- | --- | --- |
| C[C@@H](c1ccccc1)N(CC(=O)N(CCc1c[nH]c2ccccc12)CC(=O)N(CCCCN)CC(=O)N(CC(=O)N(CC(=O)N(CCCCN)CC(=O)N(CC(=O)N(CC(=O)N(CCCCN)CC(=O)N(CC(=O)N(CCc1c[nH]c2ccccc12)CC(N)=O)[C@@H](C)c1ccccc1)[C@@H](C)c1ccccc1)[C@@H](C)c1ccccc1)[C@@H](C)c1ccccc1)[C@@H](C)c1ccccc1)C(=O)CNCCCCN [peptoid 16] (H-[Nlys][Nspe][Gly(N(CH2)2(3-indolyl))][Nlys][Nspe][Nspe][Nlys][Nspe][Nspe][Nlys][Nspe][Gly(N(CH2)2(3-indolyl))]-NH2) | HPLC elution | 54.7 |

Q: Entry C[C@@H](c1ccccc1)N(CC(=O)N(CCCCN)CC(=O)N(CC(=O)N(CC(N)=O)Cc1ccccc1)Cc1ccccc1)C(=O)CN(CCCCN)C(=O)CN(CCCCN)C(=O)CN(C(=O)CN(C(=O)CN(CCCCN)C(=O)CN(C(=O)CN(C(=O)CNCCCCN)[C@@H](C)c1ccccc1)[C@@H](C)c1ccccc1)[C@@H](C)c1ccccc1)[C@@H](C)c1ccccc1 [peptoid 45] (H-[Nlys][Nspe][Nspe][Nlys][Nspe][Nspe][Nlys][Nlys][Nspe][Nlys][Nphe][Nphe]-NH2) has what HPLC elution?
A: 47.3

Q: Tell me the measured HPLC elution of C[C@@H](c1ccccc1)N(CC(N)=O)C(=O)CN(C(=O)CN(CCCCN)C(=O)CN(C(=O)CN(CCCCN)C(=O)CN(CCCCN)C(=O)CN(CCc1c[nH]c2ccccc12)C(=O)CN(C(=O)CN(CCCCN)C(=O)CN(C(=O)CN(C(=O)CNCCCCN)[C@@H](C)c1ccccc1)[C@@H](C)c1ccccc1)[C@@H](C)c1ccccc1)[C@@H](C)c1ccccc1)[C@@H](C)c1ccccc1 , please.
A: 50.8
